The origin of these recorded values is patent US10517889B2.

Assay: Blood chemistry markers after oral gavage in CD-1 mice (Example 7)
Format: in vivo
Conditions: 500 mg/kg oral gavage once daily for 4 weeks, day 30
# BUN annotations

SUBSTANCE	UOM	BUN
798781 (CGTAAGATTCACAGCA; 3-10-3 cEt gapmer, further chemistry not given here) [compound 798781]	mg/dL	25
829994 (GGAGGCAGGGCCGCGA; 3-10-3 cEt gapmer, further chemistry not given here) [compound 829994]	mg/dL	25
790615 (CCAATGAGAATGCTTC; 3-10-3 cEt gapmer, further chemistry not given here) [compound 790615]	mg/dL	22
830025 (antisense TTTGTAAATCGAAAGC; 3-10-3 cEt gapmer, further chemistry not given here) [compound 830025]	mg/dL	21
830121 (AGAATCAAGCCCTGGC; 3-10-3 cEt gapmer, further chemistry not given here) [compound 830121]	mg/dL	24
830037 (antisense CTATTGGCTGATCTGG; 3-10-3 cEt gapmer, further chemistry not given here) [compound 830037]	mg/dL	26

----------
# % Inhibition annotations
System: human SMAD7 mRNA
Assay: Antisense inhibition of human SMAD7 mRNA expression in Hep3B cells by 3-10-3 cEt gapmers, 10,000 nM, electroporation (Example 2)
Format: cell-based
Details: Hep3B cells, electroporation with 10,000 nM antisense oligonucleotide, approximately 24 hours, primer probe set RTS5062, relative to untreated control cells
Strand notation (5' to 3'): a small letter for the sugar, then the base; units joined by * are phosphorothioate-linked, units joined directly phosphodiester-linked; [ ] holds rarer units or linkages, { } end groups; capitals alone tell only the bases. k = constrained ethyl (cEt); [5mC] = 5-methylcytosine; d = 2'-deoxy (DNA)
RECORDED_ENDPOINT: % Inhibition (%)

SUBSTANCE	MEASUREMENT
798935 (antisense kA*kA*kA*dG*d[5mC]*dA*dA*dG*d[5mC]*dA*d[5mC]*dT*d[5mC]*kA*kG*kG) [compound 798935]	48
799096 (antisense kA*kA*k[5mC]*d[5mC]*dT*dG*dA*dT*dG*dT*d[5mC]*dA*d[5mC]*k[5mC]*kA*kG) [compound 799096]	30
799154 (antisense kA*kG*kA*dG*dT*dT*dA*dG*dG*dT*dG*dT*d[5mC]*kA*kG*k[5mC]) [compound 799154]	39

----------
Test: Blood chemistry markers after oral gavage in CD-1 mice (Example 7)
Assay type: in vivo
Settings: 500 mg/kg oral gavage once daily for 4 weeks, day 30
# Albumin annotations

SUBSTANCE	Albumin
830025 (antisense TTTGTAAATCGAAAGC; 3-10-3 cEt gapmer, further chemistry not given here) [compound 830025]	3.3 g/dL
829994 (GGAGGCAGGGCCGCGA; 3-10-3 cEt gapmer, further chemistry not given here) [compound 829994]	3.2 g/dL
790615 (CCAATGAGAATGCTTC; 3-10-3 cEt gapmer, further chemistry not given here) [compound 790615]	3.3 g/dL
830037 (antisense CTATTGGCTGATCTGG; 3-10-3 cEt gapmer, further chemistry not given here) [compound 830037]	3.3 g/dL
798781 (CGTAAGATTCACAGCA; 3-10-3 cEt gapmer, further chemistry not given here) [compound 798781]	3.2 g/dL
830121 (AGAATCAAGCCCTGGC; 3-10-3 cEt gapmer, further chemistry not given here) [compound 830121]	3.3 g/dL

----------
Tested on: human SMAD7 mRNA
Experiment: Antisense inhibition of human SMAD7 mRNA expression in Hep3B cells by 3-10-3 cEt gapmers, 10,000 nM, electroporation (Example 2)
Assay type: cell-based
Conditions: Hep3B cells, electroporation, 10,000 nM antisense oligonucleotide, approximately 24 hours, RTS5062, relative to untreated control cells
Strand notation (5' to 3'): a small letter for the sugar, then the base; units joined by * are phosphorothioate-linked, units joined directly phosphodiester-linked; [ ] holds rarer units or linkages, { } end groups; capitals alone tell only the bases. k = constrained ethyl (cEt); [5mC] = 5-methylcytosine; d = 2'-deoxy (DNA)
# % inhibition of SMAD7 mRNA expression annotations

SUBSTANCE	% inhibition of SMAD7 mRNA expression / %
799637 (kG*k[5mC]*kA*d[5mC]*dA*dG*dA*d[5mC]*dT*dG*d[5mC]*d[5mC]*dA*kA*kA*kT; antisense) [compound 799637]	48
799751 (antisense kG*kA*kG*d[5mC]*dT*dA*dA*dT*dG*dA*d[5mC]*dA*d[5mC]*kT*kG*kG) [compound 799751]	60
799602 (k[5mC]*k[5mC]*kA*dT*dT*dA*dT*dG*dA*dA*dT*dA*d[5mC]*kA*k[5mC]*kT; antisense) [compound 799602]	51
799733 (antisense kG*kT*kT*dT*dA*dG*dG*dT*dA*dG*dA*dG*dT*kG*kG*k[5mC]) [compound 799733]	27
799793 (kG*kT*kT*d[5mC]*dT*dT*d[5mC]*d[5mC]*dT*dG*d[5mC]*dT*dG*kT*k[5mC]*kA; antisense) [compound 799793]	30
799835 (antisense kG*k[5mC]*kA*dG*dA*dT*dG*dT*dA*dT*dA*d[5mC]*dA*kA*kA*kT) [compound 799835]	70
799799 (kA*kA*kA*dA*d[5mC]*dA*dT*d[5mC]*d[5mC]*d[5mC]*dA*d[5mC]*dT*kT*k[5mC]*kT; antisense) [compound 799799]	28
799692 (antisense kA*k[5mC]*kA*d[5mC]*dA*dG*dT*dA*dA*d[5mC]*dA*dA*d[5mC]*kA*kA*kT) [compound 799692]	0
799578 (kA*k[5mC]*k[5mC]*dT*dT*d[5mC]*d[5mC]*dG*dA*dA*dA*dG*dG*kA*k[5mC]*k[5mC]; antisense) [compound 799578]	76
799712 (antisense kA*kT*kA*dG*dA*dT*dT*dA*dT*d[5mC]*d[5mC]*dA*dA*kG*kT*kA) [compound 799712]	70
799674 (antisense kG*kA*kT*d[5mC]*dA*d[5mC]*dA*dA*dT*dT*d[5mC]*d[5mC]*dA*kA*kG*k[5mC]) [compound 799674]	48
799598 (k[5mC]*kA*kA*d[5mC]*dT*d[5mC]*dT*dG*dA*dA*d[5mC]*dG*dG*kA*kA*kA; antisense) [compound 799598]	39
799618 (kA*kA*k[5mC]*dA*dA*dA*dG*d[5mC]*dT*dG*d[5mC]*dA*dA*kT*kG*k[5mC]; antisense) [compound 799618]	0
799694 (antisense kA*kA*kG*dG*dA*dA*dT*dT*dA*dT*dG*dA*d[5mC]*kA*k[5mC]*kA) [compound 799694]	7
799556 (kA*k[5mC]*kA*dA*d[5mC]*dA*dA*dT*dG*d[5mC]*dT*d[5mC]*dT*kG*kG*k[5mC]; antisense) [compound 799556]	68
799716 (antisense kG*kG*k[5mC]*dT*dA*d[5mC]*d[5mC]*dA*dG*d[5mC]*d[5mC]*dT*dT*kG*k[5mC]*kT) [compound 799716]	32
799555 (kT*kA*k[5mC]*d[5mC]*d[5mC]*d[5mC]*dG*dT*dG*d[5mC]*d[5mC]*dT*dG*kT*k[5mC]*kA; antisense) [compound 799555]	51
799621 (kT*kT*kT*d[5mC]*dA*d[5mC]*dT*dG*d[5mC]*dA*dA*dG*dT*k[5mC]*k[5mC]*k[5mC]; antisense) [compound 799621]	49
799561 (kG*kG*kA*dA*dT*dG*dA*dA*d[5mC]*dT*dT*dT*dG*k[5mC]*k[5mC]*kT; antisense) [compound 799561]	45
799613 (kT*k[5mC]*kA*d[5mC]*dA*dT*dT*d[5mC]*dG*dG*d[5mC]*dT*dG*kT*kT*kT; antisense) [compound 799613]	17
799697 (antisense kA*kA*kT*dA*dG*dT*dT*dT*dT*d[5mC]*dT*d[5mC]*dT*k[5mC]*kA*kA) [compound 799697]	59
799282 (antisense kA*k[5mC]*kA*dG*dA*d[5mC]*d[5mC]*dA*d[5mC]*dA*dG*d[5mC]*dA*k[5mC]*k[5mC]*kT) [compound 799282]	16
799534 (kG*kA*kG*dA*dA*dT*dG*dA*dA*dG*dT*d[5mC]*d[5mC]*kA*kG*kA; antisense) [compound 799534]	68
799653 (antisense kA*k[5mC]*k[5mC]*d[5mC]*dA*d[5mC]*dT*d[5mC]*dA*dA*dA*d[5mC]*d[5mC]*kA*kG*kG) [compound 799653]	51

----------
System: human SMAD7 mRNA
Experiment: Antisense inhibition of human SMAD7 mRNA expression in Hep3B cells by 3-10-3 cEt gapmers, 10,000 nM, electroporation (Example 2)
Assay type: cell-based
Conditions: Hep3B cells, electroporation, 10,000 nM antisense oligonucleotide, approximately 24 hours, RTS5062, relative to untreated control cells
Strand notation (5' to 3'): a small letter for the sugar, then the base; units joined by * are phosphorothioate-linked, units joined directly phosphodiester-linked; [ ] holds rarer units or linkages, { } end groups; capitals alone tell only the bases. k = constrained ethyl (cEt); [5mC] = 5-methylcytosine; d = 2'-deoxy (DNA)
Threshold rule: % inhibition of SMAD7 mRNA expression greater than or equal to 40% is satisfied; below that, not satisfied.

SUBSTANCE	MEASURED_ON	LABEL
799675 (antisense kT*k[5mC]*k[5mC]*d[5mC]*dA*dG*dT*dT*d[5mC]*dA*dT*dG*dA*kT*k[5mC]*kA) [compound 799675]	human SMAD7 mRNA	not satisfied
799517 (antisense k[5mC]*kT*kT*dA*dA*dG*dT*dA*dG*dA*dG*d[5mC]*dA*kA*kA*kG) [compound 799517]	human SMAD7 mRNA	not satisfied
799639 (k[5mC]*k[5mC]*kA*dG*dA*dG*dA*dG*dT*d[5mC]*dA*dG*dG*k[5mC]*kA*k[5mC]; antisense) [compound 799639]	human SMAD7 mRNA	not satisfied
799281 (antisense k[5mC]*kA*k[5mC]*dA*dG*d[5mC]*dA*d[5mC]*d[5mC]*dT*dT*dG*dT*k[5mC]*kA*k[5mC]) [compound 799281]	human SMAD7 mRNA	not satisfied
799657 (antisense kT*kA*k[5mC]*dA*dA*dG*dT*dG*dG*dT*dT*dG*d[5mC]*kT*kG*kG) [compound 799657]	human SMAD7 mRNA	satisfied
799814 (antisense k[5mC]*k[5mC]*kT*d[5mC]*dA*d[5mC]*dT*dT*dA*dG*d[5mC]*d[5mC]*dT*kG*k[5mC]*kA) [compound 799814]	human SMAD7 mRNA	not satisfied
799656 (antisense k[5mC]*kT*kA*dA*d[5mC]*dT*dG*dG*dG*d[5mC]*dA*dG*dG*kT*k[5mC]*k[5mC]) [compound 799656]	human SMAD7 mRNA	satisfied
799521 (antisense kT*kA*kA*dA*dG*dA*d[5mC]*dA*dG*dG*dT*dT*dT*k[5mC]*k[5mC]*k[5mC]) [compound 799521]	human SMAD7 mRNA	satisfied
799641 (k[5mC]*kA*kT*d[5mC]*dA*dG*dA*d[5mC]*d[5mC]*dT*d[5mC]*dT*d[5mC]*k[5mC]*k[5mC]*kA; antisense) [compound 799641]	human SMAD7 mRNA	not satisfied
799696 (antisense kA*kA*kG*dT*dT*dA*dT*d[5mC]*dT*dG*dG*dG*dA*kA*kG*k[5mC]) [compound 799696]	human SMAD7 mRNA	satisfied
799600 (kG*k[5mC]*kA*d[5mC]*d[5mC]*dA*dA*d[5mC]*dT*d[5mC]*dT*dG*dA*kA*k[5mC]*kG; antisense) [compound 799600]	human SMAD7 mRNA	satisfied
799515 (antisense k[5mC]*k[5mC]*k[5mC]*d[5mC]*dA*dG*dA*d[5mC]*d[5mC]*dT*dG*d[5mC]*dT*kA*kA*kG) [compound 799515]	human SMAD7 mRNA	not satisfied
799760 (antisense kT*kT*k[5mC]*dT*dA*dG*dG*dT*dG*dA*dA*d[5mC]*d[5mC]*kA*kT*kA) [compound 799760]	human SMAD7 mRNA	satisfied
799520 (antisense kG*kA*kT*dT*dG*dA*dT*dG*dT*dT*dG*dG*dG*k[5mC]*kT*kG) [compound 799520]	human SMAD7 mRNA	satisfied
799599 (k[5mC]*k[5mC]*kA*dA*d[5mC]*dT*d[5mC]*dT*dG*dA*dA*d[5mC]*dG*kG*kA*kA; antisense) [compound 799599]	human SMAD7 mRNA	not satisfied
799504 (antisense kA*kG*kG*dA*dA*dA*dG*dG*dT*dG*d[5mC]*dT*dG*k[5mC]*k[5mC]*k[5mC]) [compound 799504]	human SMAD7 mRNA	not satisfied
799773 (k[5mC]*kG*k[5mC]*dT*dA*dG*dG*dT*d[5mC]*dA*d[5mC]*dA*d[5mC]*kT*k[5mC]*kA; antisense) [compound 799773]	human SMAD7 mRNA	satisfied
799798 (kT*k[5mC]*k[5mC]*d[5mC]*dA*d[5mC]*dT*dT*d[5mC]*dT*d[5mC]*d[5mC]*dT*k[5mC]*kT*kG; antisense) [compound 799798]	human SMAD7 mRNA	satisfied
799800 (kT*kT*kA*d[5mC]*dA*dA*dA*dG*dG*dG*dA*dA*dA*kG*kT*k[5mC]; antisense) [compound 799800]	human SMAD7 mRNA	not satisfied
799285 (antisense kG*kG*k[5mC]*dT*dT*d[5mC]*dA*d[5mC]*dT*dG*d[5mC]*d[5mC]*d[5mC]*kA*kT*k[5mC]) [compound 799285]	human SMAD7 mRNA	not satisfied
799503 (antisense kG*kG*k[5mC]*d[5mC]*dA*d[5mC]*d[5mC]*dA*dG*dG*dA*d[5mC]*dA*kA*kT*kG) [compound 799503]	human SMAD7 mRNA	not satisfied
799283 (antisense kA*kA*kG*dA*d[5mC]*dA*dG*dA*d[5mC]*d[5mC]*dA*d[5mC]*dA*kG*k[5mC]*kA) [compound 799283]	human SMAD7 mRNA	not satisfied
799776 (k[5mC]*kA*kG*dA*dA*dG*dG*dA*d[5mC]*d[5mC]*dA*dA*dG*kT*k[5mC]*k[5mC]; antisense) [compound 799776]	human SMAD7 mRNA	not satisfied
